target_or_system: human cathepsin S (Homo sapiens)
Sequence (P25774 115-331): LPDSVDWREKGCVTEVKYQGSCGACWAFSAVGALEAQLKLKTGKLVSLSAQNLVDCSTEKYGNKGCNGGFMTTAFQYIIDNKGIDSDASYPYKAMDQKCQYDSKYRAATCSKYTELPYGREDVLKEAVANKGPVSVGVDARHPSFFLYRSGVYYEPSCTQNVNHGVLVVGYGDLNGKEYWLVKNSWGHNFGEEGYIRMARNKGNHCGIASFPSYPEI
experiment_description: Assay of cathepsin S inhibitory activity in vitro
Format: biochemical
measurement_parameters: IC50 against human cathepsin S; substrate Z-VVR-AMC 20 μM; 25° C.; read-out: Cat-S
experimental_readout: IC50 (nM)

Here's what some known entries look like.
>>> value_reported("CS(=O)(=O)c1ccc(-c2ccc3cc(C(=O)NC4(C(=O)NC5(C#N)CC5)CCCC4)oc3c2)cc1")
5060
>>> value_reported("N#CC1(NC(=O)C2(NC(=O)c3cc4ccc(-c5ccc6ncoc6c5)cc4o3)CCC(F)(F)CC2)CC1")
3300
>>> value_reported("CS(=O)(=O)Nc1ccc(-c2ccc3cc(C(=O)NC4(C(=O)NC5(C#N)CC5)CCC(F)(F)CC4)oc3c2)cc1")
2150
>>> value_reported("CS(=O)(=O)c1ccc(-c2ccc3cc(C(=O)NC4(C(=O)NC5(C#N)CC5)CCCCC4)oc3c2)cc1")
4000

(1) N#CC1(NC(=O)C2(NC(=O)c3cc4ccc(-c5ccc(C6(O)CCC6)cc5)cc4o3)CCCCC2)CC1
(2) N#CC1(NC(=O)C2(NC(=O)c3cc4ccc(-c5ccc(-n6cncn6)cc5)cc4o3)CCCCC2)CC1
(3) N#CC1(NC(=O)C2(NC(=O)c3cc4ccc(-c5csc(N6CCS(=O)(=O)CC6)n5)cc4o3)CCCCC2)CC1
Inquiry: Highest IC50 first, then in falling order down to the smallest. Hello, could you send the labels back in the order asked? Thank you.
Reply text: 2, 1, 3

(A) CS(=O)(=O)c1ccc(-c2ccc3cc(C(=O)NC4(C(=O)NC5(C#N)CC5)CCCCCC4)oc3c2)cc1
(B) CS(=O)(=O)c1cccc(-c2ccc3cc(C(=O)NC4(C(=O)NC5(C#N)CC5)CCCCC4)oc3c2)c1
Inquiry: # min-compare on IC50 between A and B # answer = label of selected item
Reply text: B

# credit: patent US10494364B2
